Tested on: human plasma
Experiment: Ultracentrifugation (UC) plasma protein binding assay, fraction unbound in plasma (fup)
Settings: point estimate of fraction unbound in plasma, UC assay Level4
Form field: Fup.point (one value per entry).
When you answer, write just the number.

Some solved cases for reference:
compound: OCC(F)(F)C(F)(F)C(F)(F)CO [Hexafluoroamylene]
Fup.point: 0.675
//
compound: FC(F)(F)C(F)(F)CNCC(F)(F)C(F)(F)F [Bis(1H,1H-perfluoropropyl)amine]
Fup.point: 0.0433
//
compound: NC(=O)C(F)(F)C(F)(F)C(F)(F)C(F)(F)C(F)(F)C(F)(F)C(F)(F)F [Perfluorooctanamide]
Fup.point: 0.0263
//
compound: FC(F)(Br)C(F)(F)C(F)(F)C(F)(F)C(F)(F)C(F)(F)Br [1,6-Dibromododecafluorohexane]
Fup.point: 0

Task: Query: Fup.point; subject: NC(=O)C(F)(F)C(F)(F)C(F)(F)C(F)(F)F [Nonafluoropentanamide]
Result: 0.199

Task: Query: Fup.point; subject: O=C(CC(=O)C(F)(F)C(F)(F)C(F)(F)F)c1cccs1 [(Perfluorobutyryl)-2-thenoylmethane]
Result: 0.00576

Task: Query: Fup.point; subject: FC(F)(F)C(F)(F)C(F)(F)C(F)(F)C(F)(F)C(F)(F)C(F)(F)CCI [1-Iodo-1H,1H,2H,2H-perfluorononane]
Result: 0.112

Task: Query: Fup.point; subject: OCCC(F)(F)C(F)(F)C(F)(F)C(F)(F)F [4:2 Fluorotelomer alcohol]
Result: 0.231

---

Test system: human plasma
Experiment: Ultracentrifugation (UC) plasma protein binding assay, fraction unbound in plasma (fup)
Conditions: average of one UC run
observable: Fraction Unbound (fu), Run-specific Avg
When you answer, write just the number.

inputSmiles: OCCC(F)(F)C(F)(F)C(F)(F)C(F)(F)C(F)(F)C(F)(F)C(F)(F)C(F)(F)F
valueReported: 0.017
--
inputSmiles: OCCCCC(F)(F)C(F)(F)C(F)(F)C(F)(F)F
valueReported: 0.064
--
inputSmiles: OCCC(F)(F)C(F)(F)C(F)(F)C(F)(F)C(F)(F)C(F)(F)F
valueReported: 0.0229
--
inputSmiles: NCC(F)(F)C(F)(F)C(F)(F)C(F)(F)C(F)(F)C(F)(F)C(F)(F)F
valueReported: 0.08
--
inputSmiles: OCC(F)(F)C(F)(F)C(F)(F)C(F)(F)C(F)(F)C(F)(F)F
valueReported: 0.0231

Task: Query: Fraction Unbound (fu), Run-specific Avg; subject: FC(F)(F)C(F)(F)CNCC(F)(F)C(F)(F)F
Result: 0.05

Task: Query: Fraction Unbound (fu), Run-specific Avg; subject: NCC(F)(F)C(F)(F)C(F)(F)C(F)(F)C(F)(F)C(F)(F)F
Result: 0.13

Task: Query: Fraction Unbound (fu), Run-specific Avg; subject: NCC(F)(F)C(F)(F)C(F)(F)C(F)(F)C(F)(F)C(F)(F)C(F)(F)C(F)(F)F
Result: 0.0431

Task: Query: Fraction Unbound (fu), Run-specific Avg; subject: OCC(F)(F)C(F)(F)C(F)(F)C(F)(F)C(F)(F)C(F)(F)C(F)(F)C(F)(F)C(F)(F)C(F)(F)C(F)(F)F
Result: 0.0569

---

System: human plasma
Settings: both, human, 5 h, 10 μM
observable: Mean Stability
When you answer, write just the number.

Some solved cases for reference:
compound: OCC(F)(F)OC(F)(F)C(F)(F)OC(F)(F)C(F)(F)OC(F)(F)CO
Mean Stability: 1.051

compound: OCC(F)(F)OC(F)(F)C(F)(F)OC(F)(F)CO
Mean Stability: 1.067

compound: COC(=O)C(F)(F)C(F)(F)OC(F)(C(F)(F)F)C(F)(F)OC(F)=C(F)F (stereo not shown)
Mean Stability: 0.836

Task: Query: Mean Stability; subject: NC(=O)C(F)(F)C(F)(F)F [Pentafluoropropionamide]
Result: 0.711

---

Tested on: human plasma
Assay: Chemical stability in plasma over the UC assay time course (T5hr/T1hr)
Settings: chemical remaining in plasma over the PPB assay time course; NS = no significant loss
Form field: % remaining_PPB (one value per entry).
Write it as a number; the unit % goes unstated.

Some solved cases for reference:
compound: C=C(C)C(=O)OCCC(F)(F)C(F)(F)C(F)(F)C(F)(F)C(F)(F)C(F)(F)F [6:2 Fluorotelomer methacrylate]
unitName: %
% remaining_PPB: 54

compound: FC(F)(I)C(F)(F)C(F)(F)C(F)(F)C(F)(F)C(F)(F)I
unitName: %
% remaining_PPB: 72

compound: C=CC(=O)OCC(F)(F)C(F)(F)C(F)(F)C(F)(F)C(F)(F)C(F)(F)C(F)(F)C(F)F [1H,1H,9H-Perfluorononyl acrylate]
unitName: %
% remaining_PPB: 0

Task: Can you look up % remaining_PPB on human plasma for FC(F)(F)C(F)(F)C(F)(F)C(F)(F)C(F)(F)C(F)(F)C(F)(F)CCI ?
Result: 51.7

---

Test system: human plasma
Test: Chemical stability in plasma over the UC assay time course (T5hr/T1hr)
Settings: amount measured in plasma sample at 5 hr, run average, unit not given
observable: Time 5 hr, Run-specific Avg

Some solved cases for reference:
compound: NCC(F)(F)C(F)(F)C(F)(F)C(F)(F)C(F)(F)C(F)(F)C(F)(F)F
targetOrSystem: human plasma
valueReported: 3090.91

compound: C=C(C)C(=O)OCC(F)(F)C(F)(F)C(F)(F)C(F)F [1H,1H,5H-Perfluoropentyl methacrylate]
targetOrSystem: human plasma
valueReported: 74.01

compound: OCCCCC(F)(F)C(F)(F)C(F)(F)C(F)(F)F
targetOrSystem: human plasma
valueReported: 8512.77

compound: FC(F)(I)C(F)(F)C(F)(F)C(F)(F)C(F)(F)C(F)(F)I
targetOrSystem: human plasma
valueReported: 5730.84

compound: FC(F)(F)C(F)(F)CNCC(F)(F)C(F)(F)F
targetOrSystem: human plasma
valueReported: 10699.45

compound: OCC(F)(F)C(F)(F)C(F)(F)CO
targetOrSystem: human plasma
valueReported: 3649.75

compound: OCCC(F)(F)C(F)(F)C(F)(F)C(F)(F)C(F)(F)C(F)(F)C(F)(F)C(F)(F)F
targetOrSystem: human plasma
valueReported: 8217.44

compound: NCC(F)(F)C(F)(F)C(F)(F)C(F)(F)C(F)(F)C(F)(F)F
targetOrSystem: human plasma
valueReported: 3985.20

Task: Query: Time 5 hr, Run-specific Avg; subject: FC(F)(Br)C(F)(F)C(F)(F)C(F)(F)C(F)(F)C(F)(F)Br
Result: 3867.32

Task: Query: Time 5 hr, Run-specific Avg; subject: NC(=O)C(F)(F)C(F)(F)C(F)(F)F [Heptafluorobutyramide]
Result: 8817.96

Task: Query: Time 5 hr, Run-specific Avg; subject: OCCC(F)(F)C(F)(F)C(F)(F)C(F)(F)F
Result: 9365.87

Task: Query: Time 5 hr, Run-specific Avg; subject: FC(F)(F)C(F)(F)C(F)(F)C(F)(F)CCI [1H,1H,2H,2H-Perfluorohexyl iodide]
Result: 2557.09

Task: Query: Time 5 hr, Run-specific Avg; subject: OCCC(F)(F)C(F)(F)C(F)(F)C(F)(F)C(F)(F)C(F)(F)F
Result: 9387.28

Task: Query: Time 5 hr, Run-specific Avg; subject: NCC(F)(F)C(F)(F)C(F)(F)C(F)(F)C(F)(F)C(F)(F)C(F)(F)C(F)(F)F
Result: 7216.71

Task: Query: Time 5 hr, Run-specific Avg; subject: OCC(F)(F)C(F)(F)C(F)(F)C(F)(F)C(F)(F)C(F)(F)C(F)(F)C(F)(F)CO [1H,1H,10H,10H-Perfluorodecane-1,10-diol]
Result: 3856.19

Task: Query: Time 5 hr, Run-specific Avg; subject: OCC(F)(F)C(F)(F)C(F)(F)C(F)(F)C(F)(F)C(F)(F)C(F)(F)C(F)(F)C(F)(F)C(F)(F)C(F)(F)F
Result: 14264.32

Task: Query: Time 5 hr, Run-specific Avg; subject: FC(F)(I)C(F)(F)C(F)(F)C(F)(F)I
Result: 928.02

Task: Query: Time 5 hr, Run-specific Avg; subject: OCC(F)(F)C(F)(F)C(F)(F)C(F)(F)C(F)(F)C(F)(F)F
Result: 8563.21

---

Test system: human plasma
Assay: Chemical stability in plasma over the UC assay time course (T5hr/T1hr)
Settings: flag for stability failure in the plasma protein binding assay (1 = fail, 0 = pass)
Form field: PPB_Stab_Fail (one value per entry).
When you answer, write just the number.

molecule: FC(F)(F)C(F)(F)C(F)(F)CC1CO1 (stereo not drawn) [1H,1H-Heptafluorobutyl epoxide]
PPB_Stab_Fail: 1

molecule: OCCCC(F)(F)C(F)(F)C(F)(F)F
PPB_Stab_Fail: 0

molecule: C=CC(=O)OCC(F)(F)C(F)(F)C(F)(F)C(F)(F)C(F)(F)C(F)(F)C(F)(F)C(F)F [1H,1H,9H-Perfluorononyl acrylate]
PPB_Stab_Fail: 1

molecule: FC(F)(F)C(F)(F)CNCC(F)(F)C(F)(F)F
PPB_Stab_Fail: 0

molecule: C=C(C)C(=O)OCC(F)(F)C(F)(F)C(F)(F)C(F)F [1H,1H,5H-Perfluoropentyl methacrylate]
PPB_Stab_Fail: 1

molecule: OCCC(F)(F)C(F)(F)C(F)(F)C(F)(F)F
PPB_Stab_Fail: 0

Task: Query: PPB_Stab_Fail; subject: OCC(F)(F)C(F)(F)C(F)(F)C(F)(F)C(F)(F)C(F)(F)CO
Result: 0

Task: Query: PPB_Stab_Fail; subject: OCC(F)(F)OC(F)(F)C(F)(F)OC(F)(F)C(F)(F)OC(F)(F)F
Result: 1

Task: Query: PPB_Stab_Fail; subject: FC(F)C(F)(F)COCC1CO1 (stereo not drawn)
Result: 0

Values were extracted from paper PMC10223284.
